Some molecules, each annotated with its measured melting point.
Where a name gives a salt, the structure may show the parent alone.

Worked set:
>>> print(df.to_string())
                                   molecule  value_observed
0  O=C1CC(c2ccccn2)C(c2ccc(OC3CCN(C4CCC4)CC3)cc2)=NN1 (centres unmarked)   199 °C (dec.)
1  C[C@@H]1CCCN1CCCOc1ccc(-c2nn(Cc3ccc(Cl)cc3)c(=O)c3ccsc23)cc1 (as salt: HCl)   223 to 224 °C
2  C[C@@H]1CCCN1CCCOc1ccc(-c2ccc(=O)n(C)n2)cc1F (as salt: HCl)   140 to 142 °C
3  CC1(C)CC(c2ccc(OC3CCN(C4CCC4)CC3)cc2)=NNC1=O   157 to 158 °C
4  C[C@@H]1CCCN1CCCOc1ccc2c(c1)CCC1CC(=O)NN=C21 (some centres unmarked) (as salt: HCl)   193 to 195 °C

Query: Which melting point value belongs to C[C@@H]1CCCN1CCCOc1ccc(-c2ccc(=O)n(C)n2)cc1 (as salt: HCl) ?
Reply: 183 to 185 °C

Query: Query O=C1CCC(c2ccc(OC3CCN(C4CCC4)CC3)c(F)c2)=NN1 next
Reply: 195 to 197 °C

Query: Queued: O=C1CCC(c2ccc(OC3CCN(C4CCCC4)CC3)cc2)=NN1CC(F)(F)F
Reply: 225 to 227 °C
